- Test system: HUVECs
- assay-method-text: Tube formation (tubulogenesis) assay in HUVECs, 18 h
- Type: cell-based, human
- conditions-used: Homo sapiens, HUVEC, 18 h, HUVECs, 10.00 µM, 0.00 µM = 100.00, read-out: huvec.tta.18hr
Reported activity at 10 µM values follow for various compounds

compound | tgt | measure-unit | activity at 10 µM
O=C1C=CC(=O)C(c2ccc(Cl)cc2)=C1 [4-Cl-BQ, 2-(4-Chlorophenyl)benzo-2,5-quinone] | HUVECs | % | 36.4
Oc1cc(Cl)cc(-c2cccc(Cl)c2)c1 [5-OH PCB 11] | HUVECs | % | 76.5
Oc1ccccc1-c1ccc(Cl)cc1 [2'-OH PCB3] | HUVECs | % | 65.8
Oc1ccc(O)c(-c2ccc(Cl)cc2)c1 [2',5'-DiOH PCB3] | HUVECs | % | 19.3
COc1ccc(-c2ccc(Cl)cc2)cc1 [4'-OMe PCB3] | HUVECs | % | 75.2

====

Reported activity at 10 µM values follow for various molecules
- Test system: iCell cardiomyocytes (human iPSC-derived cardiomyocytes)
- assay-method-text: High-content imaging of cytotoxicity and mitochondrial integrity in iPSC-CMs
- Type: cell-based
- conditions-used: Homo sapiens, Cardiomyocyte, 24 h, 10.00 µM; 0.00 µM = 100.00; read-out: cm.mito.24hrs
Structures can show the parent of a compound that is named as a salt.

molecule | activity at 10 µM, %
Oc1ccc(O)c(-c2ccc(Cl)cc2)c1 | 40.2
O=S(=O)(O)Oc1ccc(-c2cccc(Cl)c2)cc1Cl [4-yl PCB 11 sulfate] | 82.8
Oc1ccc(-c2ccc(Cl)cc2)cc1 | 103
O=S(=O)(O)Oc1cc(Cl)ccc1-c1ccccc1 [2-yl PCB 3 sulfate] | 102
Oc1cc(Cl)cc(-c2cccc(Cl)c2)c1 | 98.7
COc1ccc(-c2ccc(Cl)cc2)cc1 | 104
COc1ccc(-c2cccc(Cl)c2)cc1Cl | 103

====

- System: iCell cardiomyocytes (human iPSC-derived cardiomyocytes)
- assay-method-text: Intracellular Ca2+ flux / beating parameters in iCell cardiomyocytes (FLIPR tetra), 90 min or 24 h
- Type: cell-based
- conditions-used: Homo sapiens, Cardiomyocyte, 1.5 h, 100.00 µM; 0.00 µM = 100.00; read-out: cm.amp.cv.90min
Structures can show the parent of a compound that is named as a salt.
Reported activity at 100 µM values follow for various molecules

molecule | tgt | activity at 100 µM (%)
Clc1ccc(-c2ccccc2)cc1 [PCB3] | iCell cardiomyocytes (human iPSC-derived cardiomyocytes) | 180
Oc1ccccc1-c1ccc(Cl)cc1 [2'-OH PCB3] | iCell cardiomyocytes (human iPSC-derived cardiomyocytes) | 0
O=S(=O)(O)Oc1cc(-c2ccccc2)ccc1Cl [3-yl PCB 3 sulfate] | iCell cardiomyocytes (human iPSC-derived cardiomyocytes) | 90.5
O=S(=O)(O)Oc1ccc(-c2cccc(Cl)c2)cc1Cl [4-yl PCB 11 sulfate] | iCell cardiomyocytes (human iPSC-derived cardiomyocytes) | 62.5
COc1ccc(-c2ccc(Cl)cc2)cc1 [4'-OMe PCB3] | iCell cardiomyocytes (human iPSC-derived cardiomyocytes) | 175
Oc1cc(Cl)cc(-c2cccc(Cl)c2)c1 [5-OH PCB 11] | iCell cardiomyocytes (human iPSC-derived cardiomyocytes) | 0

====

- Test system: iCell cardiomyocytes (human iPSC-derived cardiomyocytes)
- assay-method-text: Intracellular Ca2+ flux / beating parameters in iCell cardiomyocytes (FLIPR tetra), 90 min or 24 h
- Format: cell-based
- conditions-used: Homo sapiens, Cardiomyocyte, 24 h, 0.10 µM; 0.00 µM = 100.00; read-out: cm.amp.avg.24hrs
Counter-ions that a name gives are not always drawn.
Reported activity at 0.1 µM values follow for various compounds

compound | tgt | activity at 0.1 µM
Oc1ccc(-c2ccc(Cl)cc2)cc1 | iCell cardiomyocytes (human iPSC-derived cardiomyocytes) | 31.1%
O=S(=O)(O)Oc1ccc(-c2ccc(Cl)cc2)cc1 [4'-yl PCB 3 sulfate] | iCell cardiomyocytes (human iPSC-derived cardiomyocytes) | 46.3%
COc1ccc(-c2cccc(Cl)c2)cc1Cl | iCell cardiomyocytes (human iPSC-derived cardiomyocytes) | 79.3%
Oc1cc(Cl)cc(-c2cccc(Cl)c2)c1 | iCell cardiomyocytes (human iPSC-derived cardiomyocytes) | 123%
O=S(=O)(O)Oc1cccc(-c2ccc(Cl)cc2)c1 [3'-yl PCB 3 sulfate] | iCell cardiomyocytes (human iPSC-derived cardiomyocytes) | 60.9%
